# System: Nakaseomyces glabratus
# TEST METHOD NOTES: Antifungal activity against Candida glabrata NCIM 3236 at 500 ug/disk after 24 hr by disk diffusion method
# Format: functional
# REPORTED CONDITIONS: NCIM 3236, 24 h, read-out: IZ
Each entry below carries its recorded zone of inhibition at 500 µg/disc.
Give me the value, and tack the unit on after it.

Suppose we examine the compound `CCCCCCC[n+]1ccc(N)cc1` ; what zone of inhibition at 500 µg/disc value has been reported?
16 mm

Query (compound): `CCCCCCCCCCCCCCCC[n+]1ccc(N)cc1.[Br-]` ; field requested: zone of inhibition at 500 µg/disc
30 mm

Can you share its zone of inhibition at 500 µg/disc? I mean this compound: C[C@@H]1[C@H](O)[C@@H](C)/C=C/C=C/C=C/C=C/C=C/C=C/C=C/[C@H](O[C@@H]2O[C@H](C)[C@@H](O)[C@H](N)[C@@H]2O)C[C@@H]2O[C@](O)(C[C@@H](O)C[C@@H](O)[C@H](O)CC[C@@H](O)C[C@@H](O)CC(=O)O[C@H]1C)C[C@H](O)[C@H]2C(=O)O [AMPHOTERICIN B]
14 mm

For the compound shown here, `CCCCCCCCCCn1ccc(=N)cc1` , give the reported zone of inhibition at 500 µg/disc.
26 mm
